meta.source: the array DNA melting data of Ke et al. (doi:10.1101/2024.01.08.574731)

Some sequences, each annotated with its measured Tm.
Measurement Description: melting temperature; fluorescence melt of hairpins on a sequencing array, two-state fit, raised by 9.35 °C to match UV melts
Condition: sodium 0.088 M
Quantity Measured: Tm

[[record]]
construct_sequence = "GAGAGACGAAAGTCACTC (((.(((....))).)))"
test_value = "51.3 °C"

[[record]]
construct_sequence = "GCTTAGCGAAAGCTAGGC ((.((((....)))).))"
test_value = "60.4 °C"

[[record]]
construct_sequence = "GATCAGTTTCTGATC ((((((...))))))"
test_value = "50.8 °C"

[[record]]
construct_sequence = "GACGCAGAAATGCGTC ((((((....))))))"
test_value = "68.5 °C"

[[record]]
construct_sequence = "GCCGCAGGAAACCGCGAC (.(((.(....).))).)"
test_value = "35.9 °C"


###

Some sequences, each annotated with its measured folding enthalpy.
Measurement Description: folding enthalpy; higher = less favourable; fluorescence melt of hairpins on a sequencing array, two-state fit
Condition: sodium 0.088 M
Quantity Measured: folding enthalpy (kcal/mol)

[[record]]
construct_sequence = "GATCAATGCTTGATC ((((((...))))))"
unit_annotation = "kcal/mol"
test_value = -28.5

[[record]]
construct_sequence = "TGGGTGAAAACCCA (((((....)))))"
unit_annotation = "kcal/mol"
test_value = -18.8

[[record]]
construct_sequence = "GTGCCGGGAAACCAGCAC ((((.((....)).))))"
unit_annotation = "kcal/mol"
test_value = -33.9

[[record]]
construct_sequence = "GTCATCGAAAGATAGGAC ((((((....)))..)))"
unit_annotation = "kcal/mol"
test_value = -15.7

[[record]]
construct_sequence = "GATCTCGAGGAGATC ((((((...))))))"
unit_annotation = "kcal/mol"
test_value = -34.5

[[record]]
construct_sequence = "GCAGGGGGAAACCCCTAC (.(((((....))))).)"
unit_annotation = "kcal/mol"
test_value = -14.2

[[record]]
construct_sequence = "GTCCTTCGAAAGAACGAC (((.(((....))).)))"
unit_annotation = "kcal/mol"
test_value = -23.3

[[record]]
construct_sequence = "GTTTGCGAAAGCATAAAC ((((((....)))..)))"
unit_annotation = "kcal/mol"
test_value = -13

[[record]]
construct_sequence = "GGATACGAAAGTAGTTCC ((((((....)))..)))"
unit_annotation = "kcal/mol"
test_value = -9.9

[[record]]
construct_sequence = "GCATCCGAAAGGATTTGC ((((((....)))..)))"
unit_annotation = "kcal/mol"
test_value = -18.5

[[record]]
construct_sequence = "GAGGACGAAAGTCCCCTC ((((((....)))..)))"
unit_annotation = "kcal/mol"
test_value = -10.3

[[record]]
construct_sequence = "GGCCGGGCGAAAGCCGCC (((..(((....))))))"
unit_annotation = "kcal/mol"
test_value = -18.1

[[record]]
construct_sequence = "GCATGCGAAAGCAGCTGC ((((((....)))..)))"
unit_annotation = "kcal/mol"
test_value = -17.9

[[record]]
construct_sequence = "GGTAAGAAATTACC (((((....)))))"
unit_annotation = "kcal/mol"
test_value = -16

[[record]]
construct_sequence = "GGAGACCGAAAGGTATCC (((.(((....))).)))"
unit_annotation = "kcal/mol"
test_value = -41.4

[[record]]
construct_sequence = "GATGTGCGAAAGCATATC (((.(((....))).)))"
unit_annotation = "kcal/mol"
test_value = -32.6

[[record]]
construct_sequence = "GCCCTGCGAAAGCTCGGC (((..((....))..)))"
unit_annotation = "kcal/mol"
test_value = -19.3

[[record]]
construct_sequence = "GCTATACGAAAGTAAAGC (((.(((....))).)))"
unit_annotation = "kcal/mol"
test_value = -28

[[record]]
construct_sequence = "GCGCGGACGAAAGTCCGC (((..(((....))))))"
unit_annotation = "kcal/mol"
test_value = -5.59

[[record]]
construct_sequence = "GTTTCTCGAAAGAGCAAC (((.(((....))).)))"
unit_annotation = "kcal/mol"
test_value = -23.6

[[record]]
construct_sequence = "GTGAGACCGAAAGGTCAC (((..(((....))))))"
unit_annotation = "kcal/mol"
test_value = -16.1

[[record]]
construct_sequence = "GATCCGCTAACGGATC ((((((....))))))"
unit_annotation = "kcal/mol"
test_value = -37.2

[[record]]
construct_sequence = "GGAACAGGAAACTATTCC ((((.((....)).))))"
unit_annotation = "kcal/mol"
test_value = -13.4

[[record]]
construct_sequence = "GTCAGCGAAAGCTTTGAC ((((((....)))..)))"
unit_annotation = "kcal/mol"
test_value = -15.3

[[record]]
construct_sequence = "GATCGTGGAAACACGATC (((((((....)))))))"
unit_annotation = "kcal/mol"
test_value = -41.2

[[record]]
construct_sequence = "GCATCCGAAAGGAATGC ((((((....))).)))"
unit_annotation = "kcal/mol"
test_value = -32.3

[[record]]
construct_sequence = "GATCGTTTTGACGATC ((((((....))))))"
unit_annotation = "kcal/mol"
test_value = -40.3

[[record]]
construct_sequence = "GCGTTTGAACGC ((((....))))"
unit_annotation = "kcal/mol"
test_value = -20.3

[[record]]
construct_sequence = "AGGAAGAAATTCCT (((((....)))))"
unit_annotation = "kcal/mol"
test_value = -11.9

[[record]]
construct_sequence = "GGGTATTCGAAAGAACCC (((..(((....))))))"
unit_annotation = "kcal/mol"
test_value = -22

[[record]]
construct_sequence = "GGGTCTCCGAAAGGACCC (((..(((....))))))"
unit_annotation = "kcal/mol"
test_value = -26.5

[[record]]
construct_sequence = "GACAATGCGAAAGCAGTC (((..(((....))))))"
unit_annotation = "kcal/mol"
test_value = -14

[[record]]
construct_sequence = "GAAAACCGAAAGGTGTTC (((.(((....))).)))"
unit_annotation = "kcal/mol"
test_value = -19.9


###

Measurement Description: melting temperature; fluorescence melt of hairpins on a sequencing array, two-state fit, raised by 9.35 °C to match UV melts
Condition: sodium 0.088 M
Quantity Measured: Tm (°C)

[[record]]
construct_sequence = "GATCCCGATTGGGATC ((((((....))))))"
quantity_measured = "Tm"
unit_annotation = "°C"
test_value = 59.1

[[record]]
construct_sequence = "GATCTCCCTAGAGATC ((((((....))))))"
quantity_measured = "Tm"
unit_annotation = "°C"
test_value = 55.7

[[record]]
construct_sequence = "GAATGCGAAAGCAGTTC ((((((....))).)))"
quantity_measured = "Tm"
unit_annotation = "°C"
test_value = 41.8

[[record]]
construct_sequence = "GATCTCGCTTGAGATC ((((((....))))))"
quantity_measured = "Tm"
unit_annotation = "°C"
test_value = 54.4

[[record]]
construct_sequence = "GCTTAGCGAAAGCTACGC ((.((((....)))).))"
quantity_measured = "Tm"
unit_annotation = "°C"
test_value = 51.9

[[record]]
construct_sequence = "GCGCTGCGAAAGCCACGC (((..((....))..)))"
quantity_measured = "Tm"
unit_annotation = "°C"
test_value = 52.7

[[record]]
construct_sequence = "GATCAGCCCGCTGATC ((((((....))))))"
quantity_measured = "Tm"
unit_annotation = "°C"
test_value = 58.3

[[record]]
construct_sequence = "GATCAGTAGTCTGATC ((((((....))))))"
quantity_measured = "Tm"
unit_annotation = "°C"
test_value = 50.2


###

Measurement Description: melting temperature; fluorescence melt of hairpins on a sequencing array, two-state fit, raised by 9.35 °C to match UV melts
Condition: sodium 0.088 M
Quantity Measured: Tm (°C)

[[record]]
construct_sequence = "GAAAGAGGAAACTCTTTC (((((((....)))))))"
unit_annotation = "°C"
test_value = 51.2

[[record]]
construct_sequence = "GGTTGGGGAAACCCAATC (.(((((....))))).)"
unit_annotation = "°C"
test_value = 48.7

[[record]]
construct_sequence = "GCGTGGCGAAAGCGAAGC ((.(.((....)).).))"
unit_annotation = "°C"
test_value = 50.5

[[record]]
construct_sequence = "GCGTTGCGAAAGCTATGC ((.(.((....)).).))"
unit_annotation = "°C"
test_value = 48.6

[[record]]
construct_sequence = "GGGCTCGAAAGAGACCC ((((((....))).)))"
unit_annotation = "°C"
test_value = 66.8

[[record]]
construct_sequence = "GATCCACACTGGATC ((((((...))))))"
unit_annotation = "°C"
test_value = 50.7

[[record]]
construct_sequence = "GACGACGAAAGTCACGTC ((((((....)))..)))"
unit_annotation = "°C"
test_value = 41.1

[[record]]
construct_sequence = "GAGTAAGCGAAAGCTCTC (((..(((....))))))"
unit_annotation = "°C"
test_value = 35.7

[[record]]
construct_sequence = "GTTGCTGGAAACAGCGAC ((.((((....)))).))"
unit_annotation = "°C"
test_value = 54.3

[[record]]
construct_sequence = "GGGGTGGGAAACCGCCCC ((((.((....)).))))"
unit_annotation = "°C"
test_value = 65.9

[[record]]
construct_sequence = "GTTGCCGAAAGGCTAAC ((((((....))).)))"
unit_annotation = "°C"
test_value = 42.3

[[record]]
construct_sequence = "GTCCCCGAAAGGGGGAC ((((((....))).)))"
unit_annotation = "°C"
test_value = 68.5

[[record]]
construct_sequence = "GGCTAAGGAAACTTGGCC (((.(((....))).)))"
unit_annotation = "°C"
test_value = 50.4

[[record]]
construct_sequence = "GCACAAGGAAACTTGTGC (((((((....)))))))"
unit_annotation = "°C"
test_value = 67.4

[[record]]
construct_sequence = "GCTTACGAAAGTAGCAGC ((((((....)))..)))"
unit_annotation = "°C"
test_value = 38.1

[[record]]
construct_sequence = "GATCTCGCTGAGATC ((((((...))))))"
unit_annotation = "°C"
test_value = 53.8

[[record]]
construct_sequence = "GACTGAACGAAAGTTGTC (((..(((....))))))"
unit_annotation = "°C"
test_value = 32.8

[[record]]
construct_sequence = "GCAGGGGGAAACCCCTAC (.(((((....))))).)"
unit_annotation = "°C"
test_value = 35.4

[[record]]
construct_sequence = "GCAGGAGGAAACTCCCGC ((.((((....)))).))"
unit_annotation = "°C"
test_value = 45.8

[[record]]
construct_sequence = "GAATACGAAAGTAGCTTC ((((((....)))..)))"
unit_annotation = "°C"
test_value = 33.9

[[record]]
construct_sequence = "GTATTCCGAAAGGATAC (((.(((....))))))"
unit_annotation = "°C"
test_value = 38.9

[[record]]
construct_sequence = "GGCTTCGAAAGAAGGGCC ((((((....)))..)))"
unit_annotation = "°C"
test_value = 40.4

[[record]]
construct_sequence = "GGAGCTGGAAACGGCTCC (((((.(....).)))))"
unit_annotation = "°C"
test_value = 59.9

